Collected glycan array binding signal (z-score) values appear next to each entry.
# Target or test system: Neu5Ac(a2-3)Gal(b1-4)GlcNAc(b1-3)Gal(b1-4)GlcNAc(b1-2)Man(a1-3)[Neu5Ac(a2-3)Gal(b1-4)GlcNAc(b1-3)Gal(b1-4)GlcNAc(b1-2)Man(a1-6)]Man(b1-4)GlcNAc(b1-4)GlcNAc
# Assay method text: glycan array binding signal (z-score within array); higher = stronger binding
# Test conditions: glycan notation: IUPAC condensed, linker removed
This excerpt belongs to a sample that is enriched for the strongest signals.
Kindly provide the number alone.

Lookup: Which glycan array binding signal (z-score) reading was recorded for the binder ABA (Agaricus bisporus), Q00022 (protein) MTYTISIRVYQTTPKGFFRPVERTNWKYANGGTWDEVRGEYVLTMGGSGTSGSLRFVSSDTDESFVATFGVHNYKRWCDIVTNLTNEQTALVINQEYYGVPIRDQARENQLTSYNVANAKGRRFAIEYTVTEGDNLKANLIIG ?
Found: 2.72

Lookup: Which glycan array binding signal (z-score) reading was recorded for the binder CML1 (Coprinopsis cinerea) (protein) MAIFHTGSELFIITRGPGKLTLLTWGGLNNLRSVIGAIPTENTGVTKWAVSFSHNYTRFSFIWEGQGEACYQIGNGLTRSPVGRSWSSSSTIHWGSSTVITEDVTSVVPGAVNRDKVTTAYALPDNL ?
Found: -0.331

Lookup: Which glycan array binding signal (z-score) reading was recorded for the binder MGL2 (Mus musculus), Q8JZN1 (protein) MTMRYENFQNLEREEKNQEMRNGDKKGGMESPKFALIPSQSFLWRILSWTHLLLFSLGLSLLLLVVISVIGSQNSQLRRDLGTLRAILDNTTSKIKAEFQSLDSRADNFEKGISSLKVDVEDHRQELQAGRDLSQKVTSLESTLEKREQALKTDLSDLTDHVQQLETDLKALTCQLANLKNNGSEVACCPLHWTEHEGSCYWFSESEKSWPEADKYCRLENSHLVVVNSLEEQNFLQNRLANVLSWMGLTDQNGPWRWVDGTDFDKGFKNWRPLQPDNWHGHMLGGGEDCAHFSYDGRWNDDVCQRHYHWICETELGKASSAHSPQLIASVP ?
Found: 0.166
